Quick reference for log10 OH rate constant (cm³/molecule/s) among some compounds
particulars: 25.0 °C

smilesString: Cc1cc(C)cc(O)c1
log10 OH rate constant (cm³/molecule/s): -9.95
//
smilesString: CC(F)(F)Cl
log10 OH rate constant (cm³/molecule/s): -14.5
//
smilesString: CCOC(C)(C)C
log10 OH rate constant (cm³/molecule/s): -11.1
//
smilesString: CCCCOCCCC
log10 OH rate constant (cm³/molecule/s): -10.5
//
smilesString: CC(C)=O
log10 OH rate constant (cm³/molecule/s): -12.7
//
smilesString: O=C1CCCC1
log10 OH rate constant (cm³/molecule/s): -11.5
//
smilesString: C=CCCC(=C)C
log10 OH rate constant (cm³/molecule/s): -10
//
smilesString: CC(C)(C)CO[N+](=O)[O-]
log10 OH rate constant (cm³/molecule/s): -12.1
//
smilesString: CCCCCO
log10 OH rate constant (cm³/molecule/s): -11
//
smilesString: Cc1ccc(O)cc1C
log10 OH rate constant (cm³/molecule/s): -10.1
//
smilesString: FC1C(F)(F)OC1(F)F
log10 OH rate constant (cm³/molecule/s): -14.6
//
smilesString: C=CCCC
log10 OH rate constant (cm³/molecule/s): -10.5
//
smilesString: Cc1cccc(C)c1O
log10 OH rate constant (cm³/molecule/s): -10.2
//
smilesString: Clc1cccc(-c2ccccc2)c1
log10 OH rate constant (cm³/molecule/s): -11.3
//
smilesString: C1=CCCCCC1
log10 OH rate constant (cm³/molecule/s): -10.1
//
smilesString: CCCCCCCCCCCCCCC
log10 OH rate constant (cm³/molecule/s): -10.7
//
smilesString: FCC(F)(F)F
log10 OH rate constant (cm³/molecule/s): -14.3
//
smilesString: CCCCOC=O
log10 OH rate constant (cm³/molecule/s): -11.5
//
smilesString: CC(Cl)(Cl)Cl
log10 OH rate constant (cm³/molecule/s): -14
//
smilesString: CC=CCC
log10 OH rate constant (cm³/molecule/s): -10.2
